# TARGET OR TEST SYSTEM: T1, human full-length C5 (human, UniProt P01031 19-673; P01031 678-1676)
# T1 construct: mature; also called uncleaved human C5; native, fully-folded human C5
# T1 sequence (P01031 19-673 limits assumed, chain 1 of 2): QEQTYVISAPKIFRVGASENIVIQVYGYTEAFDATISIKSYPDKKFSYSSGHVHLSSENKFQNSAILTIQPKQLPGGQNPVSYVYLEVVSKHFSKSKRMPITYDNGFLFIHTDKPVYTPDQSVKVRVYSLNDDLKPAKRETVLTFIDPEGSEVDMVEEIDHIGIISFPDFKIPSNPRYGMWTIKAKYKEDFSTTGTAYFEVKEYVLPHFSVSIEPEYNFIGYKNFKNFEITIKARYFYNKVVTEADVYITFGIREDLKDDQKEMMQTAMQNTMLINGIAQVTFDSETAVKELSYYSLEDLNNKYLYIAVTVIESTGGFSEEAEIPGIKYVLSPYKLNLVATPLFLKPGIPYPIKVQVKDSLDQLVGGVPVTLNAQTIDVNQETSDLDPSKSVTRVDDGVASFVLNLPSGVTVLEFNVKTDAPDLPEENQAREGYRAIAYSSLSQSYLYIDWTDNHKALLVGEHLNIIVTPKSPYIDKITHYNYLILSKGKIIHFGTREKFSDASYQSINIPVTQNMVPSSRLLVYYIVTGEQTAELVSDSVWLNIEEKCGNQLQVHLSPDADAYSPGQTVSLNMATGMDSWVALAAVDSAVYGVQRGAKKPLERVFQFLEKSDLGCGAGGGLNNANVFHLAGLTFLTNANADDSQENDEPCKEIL
# T1 sequence (P01031 678-1676 limits assumed, chain 2 of 2): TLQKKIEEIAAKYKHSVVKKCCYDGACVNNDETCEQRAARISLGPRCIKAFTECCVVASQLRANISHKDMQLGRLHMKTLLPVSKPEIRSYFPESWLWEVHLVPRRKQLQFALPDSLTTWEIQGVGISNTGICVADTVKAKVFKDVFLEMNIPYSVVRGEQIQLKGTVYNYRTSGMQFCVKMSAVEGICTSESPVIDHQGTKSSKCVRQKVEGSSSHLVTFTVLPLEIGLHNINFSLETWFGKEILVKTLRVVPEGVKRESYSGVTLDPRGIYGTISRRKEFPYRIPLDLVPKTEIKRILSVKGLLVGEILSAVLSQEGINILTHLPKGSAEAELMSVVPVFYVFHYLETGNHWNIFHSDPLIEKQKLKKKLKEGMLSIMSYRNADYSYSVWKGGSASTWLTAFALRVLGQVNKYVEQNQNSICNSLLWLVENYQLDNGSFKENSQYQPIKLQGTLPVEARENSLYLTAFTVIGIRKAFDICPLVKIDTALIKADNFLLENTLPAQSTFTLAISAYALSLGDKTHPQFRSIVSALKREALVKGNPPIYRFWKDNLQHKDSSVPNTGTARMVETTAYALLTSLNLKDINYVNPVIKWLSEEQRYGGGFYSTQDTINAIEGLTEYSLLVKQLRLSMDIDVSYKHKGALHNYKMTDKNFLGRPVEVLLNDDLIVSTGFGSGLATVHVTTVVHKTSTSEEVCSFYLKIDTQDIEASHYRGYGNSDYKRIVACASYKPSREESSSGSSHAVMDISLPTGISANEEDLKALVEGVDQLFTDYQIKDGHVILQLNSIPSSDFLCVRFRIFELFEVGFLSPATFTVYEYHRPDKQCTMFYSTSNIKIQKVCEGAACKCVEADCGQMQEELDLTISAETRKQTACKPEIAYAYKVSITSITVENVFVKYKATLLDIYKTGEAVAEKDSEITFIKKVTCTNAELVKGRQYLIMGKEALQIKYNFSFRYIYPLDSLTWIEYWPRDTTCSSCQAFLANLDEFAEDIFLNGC
# MEASUREMENT PROTOCOL: Octet analysis
QUANTITY MEASURED: binding result

stdin: Quick one: binding result of BNJ346 (antibody, V domains shown, also called BNJ346 humanized anti-C5a antibody) VH: QVQLVQSGAEVKKPGASVKVSCKASGYTFTDYSMDWVRQAPGQGLEWVGAIHLNTGYTNYNQKFKGRVTITADESTSTAYMELSSLRSEDTAVYYCARGFYDGYSPMDYWGQGTTVTVSS VL: DIVMTQSPDSLAVSLGERATINCRASESVDSYGNSFMHWYQQKPGQPPKLLIYRASNLESGVPDRFSGSGSGTDFTLTISSLQAEDVAVYYCQQSNEDPYTFGGGTKVEIKR ?
stdout: no binding

stdin: Record: BNJ345 (antibody, V domains shown, also called BNJ345 humanized anti-C5a antibody) VH: QVQLVQSGSELKKPGASVKVSCKASGYTFTDYSMDWVRQAPGQGLEWMGAIHLNTGYTNYNQKFKGRVTITADESTSTAYMELSSLRSEDTAVYYCARGFYDGYSPMDYWGQGTTVTVSS VL: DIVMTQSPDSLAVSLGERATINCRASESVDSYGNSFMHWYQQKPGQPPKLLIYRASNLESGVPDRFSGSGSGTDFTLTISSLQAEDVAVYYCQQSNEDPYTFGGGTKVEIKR
stdout: no binding

stdin: Record: BNJ350 (antibody, V domains shown, also called BNJ350 humanized anti-C5a antibody) VH: QVQLVQSGAEVKKPGASVKVSCKASGYTFTDYSMDWVRQAPGQGLEWVGAINPNSGGTNYSQKFKDRVTITADESTSTAYMELSSLRSEDTAVYYCARSGSYDGYYAMDYWGQGTTVTVSS VL: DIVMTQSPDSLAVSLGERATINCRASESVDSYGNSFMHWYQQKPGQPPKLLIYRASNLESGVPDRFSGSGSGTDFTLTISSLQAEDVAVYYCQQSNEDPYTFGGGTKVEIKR
stdout: no binding
